System: HB3
Test: qHTS profiling for inhibitors of Plasmodium falciparum proliferation (AID 504749); also: nearly all actives have a fitted effect of over 60% in size
Conditions: P. falciparum in erythrocytes, SYBR Green DNA, 72 h; series mostly up to 28.7 µM
Results filed as inconclusive are left out. The source made the active and inactive calls. Calls follow the shape of the dose curve; as a rule, active = well fitted inhibition curve with a large enough effect; inconclusive = small, poorly fitted or top-dose-only effect; inactive = flat fitted curve, though single readings scatter.
Entry note: the call must match one of YES = active, NO = inactive

As a guide, the following entries are already answered.
[[record]]
molecule = "O=c1[nH]c(=O)n([C@H]2C[C@H](O)[C@@H](CO)O2)cc1F"
target_of_assay = "HB3"
cat = "NO"

[[record]]
molecule = "CN1CCc2cccc3c2[C@H]1Cc1ccc(O)c(O)c1-3"
target_of_assay = "HB3"
cat = "YES"

[[record]]
molecule = "CC(=O)OC[C@H]1O[C@@H](n2ncc(=O)[nH]c2=O)[C@H](OC(C)=O)[C@@H]1OC(C)=O"
target_of_assay = "HB3"
cat = "NO"

[[record]]
molecule = "CN(C)CCOC(c1ccc(Cl)cc1)c1ccccn1 (stereo not given)"
target_of_assay = "HB3"
cat = "NO"


Field: next molecule
Prompt: Look up the recorded call for CCN(CC)CCOC(=O)C1(c2ccccc2)CCCC1 in this test.
Completion: NO
